So I've got a bunch of compounds here, and I need their MIC values.
System: Aspergillus flavus
Numbers only, in µg/mL.

Here's what some known entries look like.
# Compound, Recorded Measurement
records = [
    ("C[C@@H](C[C@H]1CO[C@H](/C=C/c2ccc(C(F)(F)F)cc2)OC1)[C@](O)(Cn1cncn1)c1ccc(F)cc1F.O=C(O)C(=O)O", 0.5),
    ("CCC(C)n1ncn(-c2ccc(N3CCN(c4ccc(OCC5COC(Cn6cncn6)(c6ccc(Cl)cc6Cl)O5)cc4)CC3)cc2)c1=O (stereo unspecified)", 0.5),
    ("C[C@@H](S[C@H]1CO[C@H](/C=C/C=C/C=C/c2ccc(C(F)(F)F)cc2)OC1)[C@](O)(Cn1cncn1)c1ccc(F)cc1F.O=C(O)C(=O)O", 4),
    ("C[C@@H](S[C@H]1CO[C@H](c2ccc(C(F)(F)F)cc2)OC1)[C@](O)(Cn1cncn1)c1ccc(F)cc1F", 2),
]

Here is the next item to consider.
What does the data say about its MIC? Entry: C[C@@H](C[C@H]1CO[C@H](/C=C/C=C/c2ccc(C(F)(F)F)cc2)OC1)[C@](O)(Cn1cncn1)c1ccc(F)cc1F.O=C(O)C(=O)O
0.5

Numbers sourced from ChEMBL document CHEMBL1141003.
